Where do these numbers come from? They come from patent US20260055083A1.

# assaySystem: APOL1 G2 (Homo sapiens, UniProt O14791, DEL388-389)
# Construct: expressed in transfected cells; host or cells: HEK293/T-REx APOL1 G2 clone #2, doxycycline-inducible
# Sequence (O14791 with tags, fused parts or gaps DEL388-389): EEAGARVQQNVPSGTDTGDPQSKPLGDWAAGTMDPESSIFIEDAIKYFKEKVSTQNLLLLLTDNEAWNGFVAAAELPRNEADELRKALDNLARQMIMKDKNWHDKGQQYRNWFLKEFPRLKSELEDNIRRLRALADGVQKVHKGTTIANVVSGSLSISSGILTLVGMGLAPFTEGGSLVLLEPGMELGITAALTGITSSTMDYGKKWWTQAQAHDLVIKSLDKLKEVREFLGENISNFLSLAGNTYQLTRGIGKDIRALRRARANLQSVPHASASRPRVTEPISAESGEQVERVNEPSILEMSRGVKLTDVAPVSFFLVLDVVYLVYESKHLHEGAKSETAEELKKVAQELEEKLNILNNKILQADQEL
# assayText: APOL1 G2 FLIPR calcium influx assay (HEK T-REx/GCaMP6f/APOL1 G2 K6.3 cells)
# Assay type: cell-based
# measurementContext: HEK293 clone expressing GCaMP6f, doxycycline-induced APOL1 G2; prevention of calcium influx; geometric mean of at least 2 assay runs
# From the text: A HEK293 clonal cell line was generated to stably express GCaMP6f, a genetically encoded calcium indicator, and inducibly express APOL1 G2 (HEK T-REx/GCaMP6f/APOL1 G2 K6.3). […]
measurementLabel: AC50 (nM)

The following compounds have reported results that may help.
> print(dat)
                                   compound  measured
1  CS(=O)(=O)c1ccc(OC[C@@H]2CN(CCc3cc(Cl)cc(C#N)c3)C[C@H]2CO)cc1       310
2  CC(Cc1cc(Cl)cc(C#N)c1)N1C[C@@H](COc2ccc(S(C)(=O)=O)cc2)C[C@H]1C (single isomer, unassigned) [Compound 10]      1020
3  C[C@@H]1C[C@H](COc2ccc(S(C)(=O)=O)cc2)CN1C1CCc2ccc(Cl)cc2C1 (single isomer, unassigned) [Compound 5]       488

(A) C[C@@H]1C[C@H](COc2ccc(S(=O)(=O)CCS(C)(=O)=O)cc2)CN1C1CCc2ccc(Cl)cc2C1 (single isomer, unassigned) [Compound 51]
(B) CC(=O)N(C)CCS(=O)(=O)c1ccc(OC[C@@H]2CN(CCc3cccc(C#N)c3)C[C@H]2C)cc1
(C) CS(=O)(=O)c1ccc(OC[C@@H]2CN(C(CO)Cc3cccc(Cl)c3)CCN2)cc1 (single isomer, unassigned) [Compound 119]
# input # rank by AC50, ascending (min first) Write the labels out in the order the request specifies.
# output B, A, C

(P) C[C@@H]1C[C@H](COc2ccc(S(=O)(=O)CCO)cc2)CN1C1CCc2ccc(C#N)cc2C1 (single isomer, unassigned) [Compound 60]
(Q) C[C@@H]1C[C@H](COc2ccc(S(=O)(=O)CCCS(C)(=O)=O)cc2)CN1C1CCc2ccc(C#N)cc2C1 (single isomer, unassigned) [Compound 34]
(R) CC(C(O)c1cc(Cl)cc(C#N)c1)N1C[C@@H](COc2ccc(S(C)(=O)=O)cc2)C[C@H]1C (single isomer, unassigned) [Compound 98]
(S) C[C@@H]1C[C@H](COc2ccc(S(C)(=O)=O)cc2)CN1C1CCc2ccc(C#N)cc2C1 (single isomer, unassigned) [Compound 137]
# input Which order do these items take when sorted by rising AC50? List them. Output spec: a listing of the labels in the requested order.
# output S, P, Q, R

(A) C[C@@H]1C[C@H](COc2ccc(S(=O)(=O)CCS(C)(=O)=O)cc2)CN1C1CCc2c(C#N)cc(Cl)cc2C1 (single isomer, unassigned) [Compound 48]
(B) C[C@@H]1C[C@H](COc2ccc(S(=O)(=O)CCS(C)(=O)=O)cc2)CN1C1CCc2ccc(C#N)cc2C1 (single isomer, unassigned) [Compound 33]
# input Looking at recorded values for AC50, does A or B come in lower? Answer format: the label of the selected item.
# output B
(B: 662 nM, A: 1130 nM)

(P) Cc1cc(OC[C@H]2C[C@@H](C)N(CC(O)c3cccc(C#N)c3)C2)cnc1S(C)(=O)=O (single isomer, unassigned) [Compound 95]
(Q) C[C@@H]1C[C@H](COc2ccc(S(C)(=O)=O)cc2)CN1C1CCc2c(C#N)cccc2C1 (single isomer, unassigned) [Compound 134]
# input Given P and Q , report the one with the higher recorded AC50. Choose, then provide that item's label.
# output P

(1) C[C@@H]1CN(C(CO)Cc2cc(Cl)cc(C#N)c2)C[C@H]1COc1ccc(S(C)(=O)=O)cc1 (stereo partly shown) [Compound 120]
(2) Cc1cc(OC[C@@H]2CN(CCc3cc(Cl)cc(C#N)c3)C[C@H]2C)ccc1S(C)(=O)=O
# input Between these two entries, 1 and 2 , state which has the higher AC50. Use the label to indicate which entry you chose.
# output 1
(1: 480 nM, 2: 182 nM)

(I) C[C@@H]1CN(CC(O)c2cccc(C#N)c2)C[C@H]1COc1ccc(S(C)(=O)=O)nc1 (stereo partly shown) [Compound 104]
(II) C[C@@H]1C[C@H](COc2ccc(S(C)(=O)=O)nc2)CN1CCc1cc(Cl)cc(C#N)c1
(III) C[C@@H]1C[C@H](COc2ccc(S(C)(=O)=O)cc2)CN1CC(CO)c1cc(Cl)cc(C#N)c1 (single isomer, unassigned) [Compound 130]
# input Could you please order the items by AC50, going from the lowest number to the highest? Return value: ordered labels per request.
# output II, I, III
(II: 346 nM, I: 700 nM, III: 1940 nM)

(a) C[C@@H]1C[C@H](COc2ccc(S(=O)(=O)CCCS(C)(=O)=O)cc2)CN1C1CCc2c(C#N)cc(Cl)cc2C1 (single isomer, unassigned) [Compound 45]
(b) C[C@@H]1C[C@H](COc2ccc(S(C)(=O)=O)nc2)CN1CCc1cc(C#N)cc(C#N)c1
# input Of a versus b , which is the one with smaller reported AC50? Please respond with the label that marks your chosen entry.
# output b

(P) C[C@@H]1C[C@H](COc2ccc(S(C)(=O)=O)cc2)CN1C1CCc2c(Cl)cccc2C1 (stereo partly shown) [Compound 88]
(Q) COC(=O)CCCS(=O)(=O)c1ccc(OC[C@@H]2CN(CCc3cc(Cl)cc(C#N)c3)C[C@H]2C)cc1
# input When their AC50 values are compared, which is larger, P or Q ? Bench note: the answer is the label of the chosen record.
# output P
